Tested on: affinity purified β2GPI-dependent antiphospholipid antibody
assay_info: Competitive inhibition ELISA: recombinant β2GPI proteins compete for antibody binding to coated full length recombinant β2GPI
Set-up: species or system human
study_conditions: Ab 6203
endpoint_name: Max (maximum inhibition observed at concentrations tested) (%)

>  <molecule>
--345: recombinant β2GPI deletion mutant with domains 3, 4, 5 (protein) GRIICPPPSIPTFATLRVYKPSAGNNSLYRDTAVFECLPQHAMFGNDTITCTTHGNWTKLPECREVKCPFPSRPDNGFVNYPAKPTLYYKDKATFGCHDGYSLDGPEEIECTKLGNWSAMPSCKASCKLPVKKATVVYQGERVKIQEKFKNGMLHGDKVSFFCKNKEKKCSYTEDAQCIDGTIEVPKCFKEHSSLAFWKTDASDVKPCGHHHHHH

>  <unit_of_measure>
%

>  <quantitative_result>
10

$$$$
